molecular target: CYP17A1 (Homo sapiens, UniProt P05093); test: […]α-hydroxylase activity, conversion of […]-progesterone to […]OH-progesterone, TLC; enzyme source not given
Sequence (P05093 whole entry): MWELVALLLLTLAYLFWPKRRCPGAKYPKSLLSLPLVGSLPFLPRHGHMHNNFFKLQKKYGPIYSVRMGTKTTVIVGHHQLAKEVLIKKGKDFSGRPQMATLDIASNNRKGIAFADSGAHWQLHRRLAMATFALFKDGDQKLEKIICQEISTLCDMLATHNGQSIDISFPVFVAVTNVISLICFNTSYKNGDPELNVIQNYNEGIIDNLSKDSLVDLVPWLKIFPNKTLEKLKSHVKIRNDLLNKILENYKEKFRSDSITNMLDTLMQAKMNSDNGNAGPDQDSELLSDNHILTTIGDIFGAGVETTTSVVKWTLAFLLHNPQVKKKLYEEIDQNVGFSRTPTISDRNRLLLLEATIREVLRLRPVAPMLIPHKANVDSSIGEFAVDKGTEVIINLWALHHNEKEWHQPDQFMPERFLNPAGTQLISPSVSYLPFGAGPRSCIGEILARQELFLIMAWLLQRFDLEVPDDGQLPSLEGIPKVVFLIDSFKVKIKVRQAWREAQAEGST
// reported IC50 per item
Enter your answer as a number in nM; do not include the unit.

| Molecule | Target Entity | IC50 / nM |
| --- | --- | --- |
| Cc1cc(Nc2cccnc2)ccc1-n1ccc2ccccc21 [compound 20] | CYP17A1 (Homo sapiens, UniProt P05093) | 2600 |

IC50 recorded for this molecule, c1ccc2c(c1)ncn2-c1ccc(NC2CCCCC2)cc1 [compound 2] , is 1200
